Test system: HaCaT cells
Assay: Relief of 5-FU proliferative toxicity to HaCaT cells (CCK-8 cell survival)
Format: cell-based
Settings: Homo sapiens, HaCaT; increase vs Group of 5-FU; 5-FU 20 μM; compound 1 μM; 48 h; read-out: Cell Survival Rate
I'd be grateful if you could share measured activation at 1 µM for these entries.

Use these answered entries as a reference point.
Cc1cn([C@H]2C[C@H](OC(=O)Oc3ccccc3)[C@@H](COC(=O)Oc3ccccc3)O2)c(=O)[nH]c1=O : 12 to 20%
Cc1cn([C@H]2C[C@H](OC(=O)OCC(C)(C)C)[C@@H](COC(=O)OCC(C)(C)C)O2)c(=O)[nH]c1=O : 5 to 13%
Cc1cn([C@H]2C[C@H](OC(=O)C3CCCC3)[C@@H](COC(=O)C3CCCC3)O2)c(=O)[nH]c1=O : 15 to 25%
Cc1cn([C@H]2C[C@H](OC(=O)Nc3ccccc3)[C@@H](COC(=O)Nc3ccccc3)O2)c(=O)[nH]c1=O : 0 to 5%
Cc1cn([C@H]2C[C@H](O)[C@@H](COC(=O)C(C)(C)C)O2)c(=O)[nH]c1=O : 20 to 36%

HaCaT cells assay, compound `Cc1cn([C@H]2C[C@H](O)[C@@H](CO[Si](C)(C)C(C)(C)C)O2)c(=O)[nH]c1=O` , recorded activation at 1 µM = 6 to 12%

* * *

System: hand-foot syndrome caused by capecitabine in SD rats
Test: Rat model of hand-foot syndrome caused by capecitabine, gel application
Type: in vivo
Conditions: Rattus norvegicus, topical, 960 h; rats; capecitabine 4000 mg/kg once daily; gel 3 wt%; 40 days; read-out: Control Rate Hindpaws
Experimental: A rat animal model was established. 6-week aged female SD rats were administered with capecitabine by daily gavage. The degree of hand-foot syndrome in paws is similar, and there was no difference between the left and right paws. Similar to the human body, rats developed hand-foot syndrome after oral administration of capecitabine. The causes of the two are the same, and the disorder is also very similar. […]
Outcome measure: inhibition in vivo at 3 %
Quote the value and follow it with the unit of measurement.

CC(=O)OCC1OC(n2cc(C)c(=O)[nH]c2=O)CC1OC(C)=O (centres unmarked) : 71.4%
COc1ccc2cc([C@H](C)C(=O)OC[C@H]3O[C@@H](n4cc(C)c(=O)[nH]c4=O)C[C@@H]3O)ccc2c1 : 75%
CC1=C(CC(=O)OC[C@H]2O[C@@H](n3cc(C)c(=O)[nH]c3=O)C[C@@H]2O)c2cc(F)ccc2/C1=C\c1ccc([S+](C)[O-])cc1 (some centres unmarked) : 66.7%
COc1ccc2cc([C@@H](C)C(=O)OC[C@H]3O[C@@H](n4cc(C)c(=O)[nH]c4=O)C[C@@H]3O)ccc2c1 : 62.5%

Go through the items and report each one's inhibition in vivo at 3 %.
1. Cc1cn([C@H]2C[C@H](OC(=O)C(C)c3cccc(C(=O)c4ccccc4)c3)[C@@H](CO)O2)c(=O)[nH]c1=O (some centres unmarked)
2. CC(=O)Oc1ccccc1C(=O)OC[C@H]1O[C@@H](n2cc(C)c(=O)[nH]c2=O)C[C@@H]1O
3. Cc1cn([C@H]2C[C@H](O)[C@@H](COC(=O)[C@H](C)c3ccc(CC(C)C)cc3)O2)c(=O)[nH]c1=O
4. Cc1cn([C@H]2C[C@H](O)[C@@H](COC(=O)C(C)(C)C)O2)c(=O)[nH]c1=O

Output:
1. 57.1%
2. 42.9%
3. 62.5%
4. 42.9%

* * *

I'd be grateful if you could share measured Cell Survival Rate (increased percentage of cell survival compared with the Group of 5-FU) for these entries.
System: HaCaT cells
Test: Relief of 5-FU proliferative toxicity to HaCaT cells (CCK-8 cell survival)
Assay type: cell-based
Details: 5-Fu 20 μM; selected compound final concentration 12.5 μM; HaCaT cells

Use these answered entries as a reference point.
Cc1cn([C@H]2C[C@H](O)[C@@H](COC(=O)C3CCn4c(C(=O)c5ccccc5)ccc43)O2)c(=O)[nH]c1=O (stereo partly shown) : 28%-35%
Cc1cn([C@H]2C[C@H](OC(=O)C(C)c3cccc(Oc4ccccc4)c3)[C@@H](CO)O2)c(=O)[nH]c1=O (stereo partly shown) : 125%-133%
COc1ccc2cc([C@H](C)C(=O)O[C@H]3C[C@H](n4cc(C)c(=O)[nH]c4=O)O[C@@H]3CO)ccc2c1 : 58%-66%
Cc1cn([C@H]2C[C@H](O)[C@@H](COC(=O)C(C)c3ccc(CC(C)C)cc3)O2)c(=O)[nH]c1=O (stereo partly shown) : 54%-61%

Go through the items and report each one's Cell Survival Rate (increased percentage of cell survival compared with the Group of 5-FU).
1. Cc1ccc(C(=O)c2ccc(CC(=O)O[C@H]3C[C@H](n4cc(C)c(=O)[nH]c4=O)O[C@@H]3CO)n2C)cc1
2. Cc1cn([C@H]2C[C@H](O)[C@@H](COC(=O)[C@H](C)c3ccc(-c4ccccc4)c(F)c3)O2)c(=O)[nH]c1=O
3. Cc1cn([C@H]2C[C@H](OC(=O)[C@@H](C)c3ccc(CC(C)C)cc3)[C@@H](CO)O2)c(=O)[nH]c1=O

Output:
48%-55%
69%-76%
27%-35%

* * *

Test system: hand-foot syndrome caused by capecitabine in SD rats
Experiment: Rat model of hand-foot syndrome caused by capecitabine, gel application
Assay type: in vivo
Settings: rats; capecitabine 4000 mg/kg once daily; gel 1 wt%; 40 days
I'd be grateful if you could share measured Control Rate Forepaws for these entries.
Numbers only, in %.

Cc1ccc(C(=O)c2ccc(CC(=O)OC[C@H]3O[C@@H](n4cc(C)c(=O)[nH]c4=O)C[C@@H]3O)n2C)cc1 [T36] : 28.57
Cc1ccc(Nc2c(F)cccc2Cl)c(CC(=O)OC[C@H]2O[C@@H](n3cc(C)c(=O)[nH]c3=O)C[C@@H]2O)c1 [T35] : 25
CCC1(CC(C)=O)OCCc2c1[nH]c1c(CC(=O)OC[C@H]3O[C@@H](n4cc(C)c(=O)[nH]c4=O)C[C@@H]3O)cccc21 (stereo partly shown) [T26] : 22.22

Kindly consider the entry below.
Reported Control Rate Forepaws for Cc1cn([C@H]2C[C@H](O)[C@@H](COC(=O)C(C)c3cccc(Oc4ccccc4)c3)O2)c(=O)[nH]c1=O (stereo partly shown) [T27] was 25

* * *

Test system: HaCaT cells
Test: Relief of 5-FU proliferative toxicity to HaCaT cells (CCK-8 cell survival)
Format: cell-based
Settings: 5-Fu 20 μM; selected compound final concentration 25 μM; HaCaT cells
Outcome measure: Cell Survival Rate (increased percentage of cell survival compared with the Group of 5-FU)

Cc1cn([C@H]2C[C@H](O)[C@@H](COC(=O)C(C)c3ccc(CC(C)C)cc3)O2)c(=O)[nH]c1=O (stereo partly shown) : 44%-51%
Cc1cn([C@H]2C[C@H](O)[C@@H](COC(=O)Cc3ccccc3Nc3c(Cl)cccc3Cl)O2)c(=O)[nH]c1=O : 69%-77%
Cc1cn([C@H]2C[C@H](O)[C@@H](COC(=O)C(C)c3cccc(C(=O)c4ccccc4)c3)O2)c(=O)[nH]c1=O (stereo partly shown) : 64%-71%
Cc1ccc(C(=O)c2ccc(CC(=O)O[C@H]3C[C@H](n4cc(C)c(=O)[nH]c4=O)O[C@@H]3CO)n2C)cc1 : 44%-51%

Go through the items and report each one's Cell Survival Rate (increased percentage of cell survival compared with the Group of 5-FU).
1. Cc1cn([C@H]2C[C@H](OC(=O)C(C)c3cccc(Oc4ccccc4)c3)[C@@H](COC(=O)C(C)c3cccc(Oc4ccccc4)c3)O2)c(=O)[nH]c1=O (stereo partly shown)
2. COc1ccc2cc([C@H](C)C(=O)O[C@H]3C[C@H](n4cc(C)c(=O)[nH]c4=O)O[C@@H]3CO)ccc2c1
3. CC(=O)Oc1ccccc1C(=O)OC[C@H]1O[C@@H](n2cc(C)c(=O)[nH]c2=O)C[C@@H]1O

Output:
1. 61%-68%
2. 68%-75%
3. 49%-57%

* * *

Test system: HaCaT cells
Assay: Relief of 5-FU proliferative toxicity to HaCaT cells (CCK-8 cell survival)
Assay type: cell-based
Details: 5-Fu 20 μM; selected compound final concentration 50 μM; HaCaT cells
Experimental: The cultured skin cell HaCaTs were digested, counted, and inoculated into a 96-well plate with 5000-10000 cells in each well. After 24 h of culture, the wells were divided into Group of blank solvent control, Group of 5-FU, Group of 5-FU+thymidine derivative, Group of 5-FU+the combination of thymidine derivative and uridine derivative. […] Using GraphPad Prism 6.0 software, the results were statistically analyzed by t-test and plotted. […]
I'd be grateful if you could share measured Cell Survival Rate (increased percentage of cell survival compared with the Group of 5-FU) for these entries.

Cc1cn([C@H]2C[C@H](O)[C@@H](COC(=O)C3CCn4c(C(=O)c5ccccc5)ccc43)O2)c(=O)[nH]c1=O (stereo partly shown) [T34] : 69%-77%
COc1ccc2cc([C@H](C)C(=O)O[C@H]3C[C@H](n4cc(C)c(=O)[nH]c4=O)O[C@@H]3CO)ccc2c1 [T42] : 66%-74%
COc1ccc2c(c1)c(CC(=O)OC[C@H]1O[C@@H](n3cc(C)c(=O)[nH]c3=O)C[C@@H]1O)c(C)n2C(=O)c1ccc(Cl)cc1 [T38] : 67%-75%

Go through the items and report each one's Cell Survival Rate (increased percentage of cell survival compared with the Group of 5-FU).
1. CCC(CC)COC(=O)[C@H](C)N[P@](=O)(OC[C@H]1O[C@@H](n2cc(C)c(=O)[nH]c2=O)C[C@@H]1O)Oc1ccccc1 [T48]
2. Cc1cn([C@H]2C[C@H](O)[C@@H](COC(=O)Cc3ccccc3Nc3c(Cl)cccc3Cl)O2)c(=O)[nH]c1=O [T39]
3. Cc1cn([C@H]2C[C@H](O)[C@@H](COC(=O)C(C)c3ccc(CC(C)C)cc3)O2)c(=O)[nH]c1=O (stereo partly shown) [T30]

Output:
["69%-76%", "69%-77%", "39%-46%"]

Reported Cell Survival Rate (increased percentage of cell survival compared with the Group of 5-FU) for Cc1cn([C@H]2C[C@H](OC(=O)C(C)c3cccc(Oc4ccccc4)c3)[C@@H](COC(=O)C(C)c3cccc(Oc4ccccc4)c3)O2)c(=O)[nH]c1=O (stereo partly shown) [T46] was 65%-72%

Reference for the values: patent US20230405003A1
